Form field: pIC50 (one value per entry).
- ASSAYED TARGET: cannabinoid 1 receptor (hCB1R) (Homo sapiens)
- Construct: expressed in transfected cells; host or cells: HEK293
- Sequence (P21554 whole entry): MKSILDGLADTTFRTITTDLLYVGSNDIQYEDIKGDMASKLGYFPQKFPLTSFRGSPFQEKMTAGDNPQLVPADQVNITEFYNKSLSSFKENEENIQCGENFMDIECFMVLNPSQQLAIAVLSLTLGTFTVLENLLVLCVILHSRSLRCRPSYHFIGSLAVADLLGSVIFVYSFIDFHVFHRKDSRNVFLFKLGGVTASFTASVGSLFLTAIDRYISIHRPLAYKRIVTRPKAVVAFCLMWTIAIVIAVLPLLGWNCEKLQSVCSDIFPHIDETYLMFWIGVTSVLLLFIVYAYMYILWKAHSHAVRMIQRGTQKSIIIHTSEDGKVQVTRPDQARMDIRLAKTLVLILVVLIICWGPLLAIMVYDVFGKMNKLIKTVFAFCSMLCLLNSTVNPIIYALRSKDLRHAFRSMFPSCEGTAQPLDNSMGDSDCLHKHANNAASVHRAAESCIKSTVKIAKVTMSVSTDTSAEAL
- PROCEDURE SUMMARY: In vitro functional assay with recombinant cells (FLIPR), CB1
- Type: cell-based
- CONDITION PARAMETERS: recombinant HEK293 cells expressing CB1 and G-protein; intracellular Ca2+ change after reference agonist, 20 min preincubation; read-out: hCB1R: FLIPR; IC50
// pIC50 here means minus log10 of the molar concentration (mol/L)

Worked examples follow.
> print(dat)
                                   compound                            assayed.target  reported.measurement
1  COC(=O)CSc1ccc(NC(=O)Nc2cc(F)ccc2CN2C(=O)N(c3ccc(C#N)c(C(F)(F)F)c3)C(=O)C2(C)C)cc1  cannabinoid 1 receptor (hCB1R) (Homo sapiens)                  8.70
2  CC1(C)C(=O)N(c2ccc(F)c(C(F)(F)F)c2)C(=O)N1Cc1ccc(F)cc1NC(=O)Nc1ccc(C(=O)O)cc1  cannabinoid 1 receptor (hCB1R) (Homo sapiens)                  7.28
3  CC1(C)C(=O)N(c2ccc(C#N)c(C(F)(F)F)c2)C(=O)N1Cc1ccc(F)cc1NC(=O)Nc1ccnc(O)c1  cannabinoid 1 receptor (hCB1R) (Homo sapiens)                  7.57

Turning now to a further record.
Dear colleague, please send me the reported pIC50 for "CC1(C)C(=O)N(c2ccc(F)c(C(F)(F)F)c2)C(=O)N1Cc1ccc(F)cc1NC(=O)Nc1ccc(S(C)(=O)=O)cc1" when you can.
7.89

---

- ASSAYED TARGET: CHO-K1/cannabinoid CB1 (hCB1R) (Homo sapiens)
- Construct: expressed in transfected cells; host or cells: CHO-K1
- Sequence (P21554 whole entry): as the sequence (P21554 whole entry) above
- PROCEDURE SUMMARY: Binding to the CB1 receptor ([3H]-SR141716A displacement)
- Protocol: Binding to the CB 1 Receptor: Test compounds: The compounds (3 μl, 10 mM, 100% DMSO), pipetted into 96-well PP microtiter plates, were diluted with 27 μl of 100% DMSO (dimethyl sulfoxide). […] The values were calculated using the corrected raw data. The values reported were obtained as average values of a double determination. The IC50 values were calculated from the measurements with the program Xlfit, formula 205. […]
READOUT KIND: Ki (nM)
Just the number in nM, nothing appended.

Dear colleague, please send me the reported Ki for "COC(=O)c1ccc(NC(=O)Nc2ccccc2CN2C(=O)N(c3ccc(C#N)c(C(F)(F)F)c3)C(=O)C2(C)C)cc1" when you can.
11

---

Form field: IC50 (one value per entry).
- ASSAYED TARGET: cannabinoid 2 receptor (hCB2R) (Homo sapiens)
- Construct: expressed in transfected cells; host or cells: HEK293
- Sequence (P34972 whole entry): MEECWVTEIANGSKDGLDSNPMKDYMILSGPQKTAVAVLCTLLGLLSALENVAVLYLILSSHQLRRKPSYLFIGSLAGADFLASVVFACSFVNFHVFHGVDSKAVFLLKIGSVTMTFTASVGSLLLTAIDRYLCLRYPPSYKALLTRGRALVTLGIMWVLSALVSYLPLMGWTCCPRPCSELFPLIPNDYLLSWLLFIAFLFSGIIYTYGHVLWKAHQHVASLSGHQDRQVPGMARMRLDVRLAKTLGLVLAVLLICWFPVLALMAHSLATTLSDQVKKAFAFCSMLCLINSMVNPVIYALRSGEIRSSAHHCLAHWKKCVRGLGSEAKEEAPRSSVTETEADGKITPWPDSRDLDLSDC
- PROCEDURE SUMMARY: In vitro functional assay with recombinant cells (FLIPR), CB2
- Format: cell-based
- Method: In vitro functional assays with recombinant cells: Function-testing assays were performed by means of the FLIPR technique (“Fluorometric Imaging Plate Reader”, Molecular Devices Corp.). To this end, ligand-induced changes in the intracellular concentration of Ca^2+ in recombinant HEK293 cells, which expressed both a cannabinoid receptor (CB1 or CB2) and G-protein Galphal6, were determined. […]

> print(dat)
                              sample.smiles  reported.measurement
1  CCOc1ccc(NC(=O)Nc2ccccc2CN2C(=O)N(c3ccc(C#N)c(C(F)(F)F)c3)C(=O)C2(C)C)cc1               > 10 µM

Turning now to a further record.
Dear colleague, please send me the reported IC50 for "CC1(C)C(=O)N(c2ccc(C#N)c(C(F)(F)F)c2)C(=O)N1Cc1ccccc1NC(=O)Nc1ccc(S(N)(=O)=O)cc1" when you can.
> 10 µM

---

- ASSAYED TARGET: CHO-K1/cannabinoid CB1 (hCB1R) (Homo sapiens)
- Construct: expressed in transfected cells; host or cells: CHO-K1
- PROCEDURE SUMMARY: Binding to the CB1 receptor ([3H]-SR141716A displacement)
- CONDITION PARAMETERS: [3H]-SR141716A 0.5 nM; Ki from IC50 and Kd by Cheng-Prusoff; average of double determination; read-out: hCB1R; Bindung Ki
Where a name gives a salt, the structure may show the parent alone.
# strict inequality: Ki < 20 nM yields rule met, everything else yields rule not met

Here's what some known entries look like.
> print(dat)
                                   compound         group
1  CC1(C)C(=O)N(c2ccc(C#N)c(C(F)(F)F)c2)C(=O)N1Cc1ccccc1NC(=O)Nc1ccccc1  rule not met
2  CC1(C)C(=O)N(c2ccc(C#N)c(C(F)(F)F)c2)C(=O)N1Cc1ccccc1NS(=O)(=O)Cc1ccc(F)cc1F  rule not met

Given CC1(C)C(=O)N(c2ccc(F)c(C(F)(F)F)c2)C(=O)N1Cc1ccc(F)cc1NC(=O)Nc1ccc(N)cc1 [Example 23, hydrochloride] , is recorded Ki strictly lower than 20 nM?
rule met

Given C[S+]([O-])c1ccc(NC(=O)Nc2ccccc2CN2C(=O)N(c3ccc(C#N)c(C(F)(F)F)c3)C(=O)C2(C)C)cc1 (stereo not shown) , is recorded Ki strictly lower than 20 nM?
rule met

Given "COC(=O)c1ccc(NC(=O)Nc2cc(F)ccc2CN2C(=O)N(c3ccc(F)c(C(F)(F)F)c3)C(=O)C2(C)C)cc1" , is recorded Ki strictly lower than 20 nM?
rule not met

Given "COC(=O)CS(=O)(=O)c1ccc(NC(=O)Nc2cc(F)ccc2CN2C(=O)N(c3ccc(C#N)c(C4CC4)c3)C(=O)C2(C)C)cc1" , is recorded Ki strictly lower than 20 nM?
rule met

Given "CCOP(=O)(OCC)c1ccc(NC(=O)Nc2cc(F)ccc2CN2C(=O)N(c3ccc(F)c(C(F)(F)F)c3)C(=O)C2(C)C)cc1" , is recorded Ki strictly lower than 20 nM?
rule not met

Given "COC(=O)CSc1ccc(NC(=O)Nc2cc(F)ccc2CN2C(=O)N(c3ccc(C#N)c(C(F)(F)F)c3)C(=O)C2(C)C)cc1" , is recorded Ki strictly lower than 20 nM?
rule met

Given "CC1(C)C(=O)N(c2ccc(C#N)c(C(F)(F)F)c2)C(=O)N1Cc1ccc(F)cc1NC(=O)Nc1ccc(C(=O)O)cc1" , is recorded Ki strictly lower than 20 nM?
rule not met

Given "CC1(C)C(=O)N(c2ccc(C#N)c(C(F)(F)F)c2)C(=O)N1Cc1ccccc1NC(=O)Nc1ccc(F)cc1F" , is recorded Ki strictly lower than 20 nM?
rule not met

Given "CC1(C)C(=O)N(c2ccc(C#N)c(C(F)(F)F)c2)C(=O)N1Cc1ccc(F)cc1NC(=O)Nc1ccnc(O)c1" , is recorded Ki strictly lower than 20 nM?
rule met

Given "CC1(C)C(=O)N(c2ccc(C#N)c(C(F)(F)F)c2)C(=O)N1Cc1ccccc1NC(=O)Nc1ccc(S(C)(=O)=O)cc1" , is recorded Ki strictly lower than 20 nM?
rule met

---

- ASSAYED TARGET: cannabinoid 1 receptor (hCB1R) (Homo sapiens)
- Construct: expressed in transfected cells; host or cells: HEK293
- PROCEDURE SUMMARY: In vitro functional assay with recombinant cells (FLIPR), CB1
- Type: cell-based
- CONDITION PARAMETERS: recombinant HEK293 cells expressing CB1 and G-protein; intracellular Ca2+ change after reference agonist, 20 min preincubation; read-out: hCB1R: FLIPR; IC50
- Procedure: In vitro functional assays with recombinant cells: Function-testing assays were performed by means of the FLIPR technique (“Fluorometric Imaging Plate Reader”, Molecular Devices Corp.). To this end, ligand-induced changes in the intracellular concentration of Ca^2+ in recombinant HEK293 cells, which expressed both a cannabinoid receptor (CB1 or CB2) and G-protein Galphal6, were determined. […]
READOUT KIND: pIC50
// pIC50 here means minus log10 of the molar concentration (mol/L)

Worked examples follow.
> print(dat)
                                   molecule  reported.measurement
1  CC1(C)C(=O)N(c2ccc(F)c(C(F)(F)F)c2)C(=O)N1Cc1ccc(F)cc1NC(=O)Nc1ccc(C(=O)NS(=O)(=O)C2CC2)cc1 [Example 65]                  7.38
2  COc1ccc(CN2C(=O)N(c3ccc(F)c(C(F)(F)F)c3)C(=O)C2(C)C)c(NC(=O)Nc2ccc(S(N)(=O)=O)cc2)c1 [Example 70]                  7.85
3  CC1(C)C(=O)N(c2ccc(C#N)c(C(F)(F)F)c2)C(=O)N1Cc1ccccc1NC(=O)Nc1ccc(S(N)(=O)=O)cc1 [Example 1]                  7.62

Using cannabinoid 1 receptor (hCB1R) (Homo sapiens) as the test system, report measured pIC50 of CC1(C)C(=O)N(c2ccc(C#N)c(C(F)(F)F)c2)C(=O)N1Cc1ccccc1NC(=O)Nc1ccc(C(N)=O)cc1 [Example 16] .
7.92

Using cannabinoid 1 receptor (hCB1R) (Homo sapiens) as the test system, report measured pIC50 of CC1(C)C(=O)N(c2ccc(C#N)c(C3CC3)c2)C(=O)N1Cc1ccc(F)cc1NC(=O)Nc1ccc(S(C)(=O)=O)cc1 [Example 30] .
7.96

Using cannabinoid 1 receptor (hCB1R) (Homo sapiens) as the test system, report measured pIC50 of CC1(C)C(=O)N(c2ccc(F)c(C(F)(F)F)c2)C(=O)N1Cc1ccc(F)cc1NC(=O)Nc1ccc(C(=O)NS(C)(=O)=O)cc1 [Example 61] .
7.80
